Target: placental αvβ3 (Homo sapiens, UniProt P05106+P06756)
Construct: purified active GP IIb-IIIa (Calbiochem) or olacental αvβ3 at 0.5 μg/ml; from tissue; host or cells: placenta
Sequence (P06756 31-889 limits assumed, one chain of several): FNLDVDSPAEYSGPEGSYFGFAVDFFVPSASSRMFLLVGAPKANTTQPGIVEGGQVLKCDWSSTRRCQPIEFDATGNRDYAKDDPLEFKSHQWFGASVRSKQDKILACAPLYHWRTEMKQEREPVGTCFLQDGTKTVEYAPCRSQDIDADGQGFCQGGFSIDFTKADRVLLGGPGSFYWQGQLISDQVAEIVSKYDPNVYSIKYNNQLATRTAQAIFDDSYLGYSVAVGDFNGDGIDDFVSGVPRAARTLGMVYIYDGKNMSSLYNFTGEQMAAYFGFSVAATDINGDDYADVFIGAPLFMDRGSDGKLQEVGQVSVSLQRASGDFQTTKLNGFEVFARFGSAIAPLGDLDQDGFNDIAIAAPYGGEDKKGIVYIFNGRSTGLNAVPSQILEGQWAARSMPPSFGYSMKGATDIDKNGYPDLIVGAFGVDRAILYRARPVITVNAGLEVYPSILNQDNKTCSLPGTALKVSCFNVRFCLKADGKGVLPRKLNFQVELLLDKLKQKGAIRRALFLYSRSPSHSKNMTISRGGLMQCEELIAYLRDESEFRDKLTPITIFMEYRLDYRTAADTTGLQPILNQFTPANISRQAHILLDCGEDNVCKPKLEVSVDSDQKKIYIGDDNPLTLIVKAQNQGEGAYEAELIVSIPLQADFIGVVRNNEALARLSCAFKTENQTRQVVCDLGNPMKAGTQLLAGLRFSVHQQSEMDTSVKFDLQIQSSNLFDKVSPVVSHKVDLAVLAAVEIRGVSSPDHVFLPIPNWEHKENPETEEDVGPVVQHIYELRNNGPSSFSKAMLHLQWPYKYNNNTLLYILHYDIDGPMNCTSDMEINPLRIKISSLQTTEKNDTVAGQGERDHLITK
Sequence (P06756 891-1048 partner limits assumed, one chain of several): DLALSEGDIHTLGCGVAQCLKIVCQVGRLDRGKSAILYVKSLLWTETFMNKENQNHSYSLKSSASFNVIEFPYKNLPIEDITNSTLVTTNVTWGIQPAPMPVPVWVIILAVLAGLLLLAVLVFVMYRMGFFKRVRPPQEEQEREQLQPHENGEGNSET
Experiment: Fibrinogen binding to immobilized αvβ3
Details: biotinylated-fibrinogen 10 nM, immobilized placental αvβ3; read-out: IC50 values for the fibrinogen binding assay αvβ3
Description: Nonbound fibrinogen was removed by five washes with binding buffer. Avidin conjugated to alkaline phosphatase (Sigma), diluted in binding buffer, was added and incubated for two hours at 37° C. The plates were washed five times with binding buffer, and after addition of the substrate PNPP (Pierce), the enzyme activity was measured by the absorbance at 405 nm.
Counter-ions that a name gives are not always drawn.
EXPERIMENTAL_READOUT: IC50 (µM)

Consider the following illustrative entries.
[[record]]
compound = "N=C(N)NCCCCOc1ccc2cc(C(=O)NC[C@H](NS(=O)(=O)c3ccccc3)C(=O)O)cc(=O)n2c1 [Compound XVIII, Hydrochloride]"
target_desc = "placental αvβ3 (Homo sapiens, UniProt P05106+P06756)"
value_measured = 2.2

[[record]]
compound = "N=C(N)NCC1CCc2cc(C(=O)NCC(NS(=O)(=O)c3ccccc3)C(=O)O)cc(=O)n2C1 (stereo not drawn)"
target_desc = "placental αvβ3 (Homo sapiens, UniProt P05106+P06756)"
value_measured = 0.0042

[[record]]
compound = "O=C(NC[C@H](NS(=O)(=O)c1ccccc1)C(=O)O)c1cc(=O)n2cc(CNc3ncccn3)ccc2c1 [Compound XLVI, trifluoroacetic acid salt]"
target_desc = "placental αvβ3 (Homo sapiens, UniProt P05106+P06756)"
value_measured = 0.29


a. NCC1CCc2cc(C(=O)NCC(NS(=O)(=O)c3ccccc3)C(=O)O)cc(=O)n2C1 (stereo not drawn) [Compound XXVIII, Trifluoroacetic Acid Salt]
b. N=C(N)NCc1ccc2cc(C(=O)NCC(Nc3ncccn3)C(=O)O)cc(=O)n2c1 (racemic) [Compound XLIV, bis-trifluoroacetic acid salt]
### Prompt Of a versus b , which is the one with smaller reported IC50? Selection: enter the item's label.
### Response b
(b: 0.03 µM, a: 0.37 µM)

====

target: GP IIb-IIIa (αIIbβ3) (Homo sapiens, UniProt P05106+P08514); construct: purchased Calbiochem; assay: Fibrinogen binding to immobilized GP IIb-IIIa (αIIbβ3); settings: biotinylated-fibrinogen 10 nM, immobilized GP IIb-IIIa; read-out: IC50 values for the fibrinogen binding assay αIIbβ3
Sequence (P08514 32-887 limits assumed): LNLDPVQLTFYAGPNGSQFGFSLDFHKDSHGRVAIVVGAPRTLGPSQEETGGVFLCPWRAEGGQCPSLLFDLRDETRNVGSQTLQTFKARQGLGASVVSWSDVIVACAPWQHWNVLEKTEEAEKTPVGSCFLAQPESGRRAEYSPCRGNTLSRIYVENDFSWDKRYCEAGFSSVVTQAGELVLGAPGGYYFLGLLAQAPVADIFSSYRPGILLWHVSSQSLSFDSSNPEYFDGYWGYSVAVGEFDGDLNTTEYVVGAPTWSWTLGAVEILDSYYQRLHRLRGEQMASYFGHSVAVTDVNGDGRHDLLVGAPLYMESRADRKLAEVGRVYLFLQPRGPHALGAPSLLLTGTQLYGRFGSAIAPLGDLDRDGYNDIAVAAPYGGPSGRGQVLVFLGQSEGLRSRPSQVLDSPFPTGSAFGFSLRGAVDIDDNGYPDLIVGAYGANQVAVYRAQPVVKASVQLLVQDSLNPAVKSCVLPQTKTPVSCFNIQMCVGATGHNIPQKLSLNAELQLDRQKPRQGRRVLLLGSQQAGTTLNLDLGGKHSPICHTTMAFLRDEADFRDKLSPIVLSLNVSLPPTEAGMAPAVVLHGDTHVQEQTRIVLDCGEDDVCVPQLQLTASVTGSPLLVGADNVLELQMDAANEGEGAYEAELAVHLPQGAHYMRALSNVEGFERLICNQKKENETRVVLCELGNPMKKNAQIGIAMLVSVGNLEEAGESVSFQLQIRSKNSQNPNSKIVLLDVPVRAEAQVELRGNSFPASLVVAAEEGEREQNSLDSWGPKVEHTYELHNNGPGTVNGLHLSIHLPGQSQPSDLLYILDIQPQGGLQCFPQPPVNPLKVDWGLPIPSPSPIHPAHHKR
Sequence (P08514 891-1039 partner limits assumed): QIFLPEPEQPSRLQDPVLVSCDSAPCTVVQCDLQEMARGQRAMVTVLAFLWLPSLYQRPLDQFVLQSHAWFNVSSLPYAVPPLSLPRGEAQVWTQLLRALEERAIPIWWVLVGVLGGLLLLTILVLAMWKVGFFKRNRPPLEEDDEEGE
Sequence (P05106 27-788): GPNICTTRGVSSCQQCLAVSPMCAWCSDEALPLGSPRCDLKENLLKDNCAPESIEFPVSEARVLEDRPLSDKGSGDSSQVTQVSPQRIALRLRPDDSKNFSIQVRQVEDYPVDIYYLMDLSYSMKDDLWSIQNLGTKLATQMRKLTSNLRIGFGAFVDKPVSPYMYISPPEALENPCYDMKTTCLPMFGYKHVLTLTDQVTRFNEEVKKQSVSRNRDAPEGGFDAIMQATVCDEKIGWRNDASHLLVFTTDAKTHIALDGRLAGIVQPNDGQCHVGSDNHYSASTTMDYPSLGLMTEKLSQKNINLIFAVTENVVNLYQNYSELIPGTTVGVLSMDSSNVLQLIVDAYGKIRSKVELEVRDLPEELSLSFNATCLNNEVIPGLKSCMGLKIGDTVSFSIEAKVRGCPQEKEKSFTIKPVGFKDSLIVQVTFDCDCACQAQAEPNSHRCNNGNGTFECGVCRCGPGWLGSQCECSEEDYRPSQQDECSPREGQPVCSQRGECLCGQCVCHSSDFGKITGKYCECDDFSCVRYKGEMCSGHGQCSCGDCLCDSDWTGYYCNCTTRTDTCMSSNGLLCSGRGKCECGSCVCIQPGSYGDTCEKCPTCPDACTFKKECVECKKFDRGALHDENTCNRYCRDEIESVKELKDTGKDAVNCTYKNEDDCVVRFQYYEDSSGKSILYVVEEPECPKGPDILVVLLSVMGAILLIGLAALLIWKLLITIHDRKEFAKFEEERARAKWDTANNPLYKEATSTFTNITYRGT
pIC50: −log10 of the molar value. Counter-ions that a name gives are not always drawn.
EXPERIMENTAL_READOUT: pIC50

[[record]]
compound = "NCCCOc1ccc2ccc(C(=O)NC[C@H](NS(=O)(=O)c3ccccc3)C(=O)O)c(=O)n2c1 [Compound III, Trifluoroacetic Acid Salt]"
experimental_readout = "pIC50"
value_measured = 6.28


1. N=C(N)NCCCOc1ccc2ccc(NC(=O)NC(CC(=O)O)c3cccnc3)c(=O)n2c1 (racemic)
2. N=C(N)NCc1ccc2cc(C(=O)NC(CC(=O)O)c3cc(Cl)cc(Cl)c3)cc(=O)n2c1 (racemic) [Compound XLII, trifluoroacetic acid salt]
3. NCCCOc1ccc2cc(C(=O)NC[C@H](NS(=O)(=O)c3ccccc3)C(=O)O)cc(=O)n2c1 [Compound XIV, Trifluoroacetic Acid Salt]
4. Cl.N=C(N)NCc1ccc2cc(C(=O)NC[C@H](NS(=O)(=O)c3ccccc3)C(=O)O)cc(=O)n2c1 [Compound XXVII, Hydrochloride]
5. NCCCCCOc1ccc2ccc(C(=O)NC[C@H](NS(=O)(=O)c3ccccc3)C(=O)O)c(=O)n2c1 [Compound I, TFA Salt]
### Prompt Place the items in sequence of falling pIC50. // ordering of labels required in reply
### Response 3, 5, 4, 1, 2
